Readings of composite z-score for the listed molecules
EXPERIMENTAL DETAILS: binders from COS7 lysate, DM2A8 probe, primary screen, torsin A project, cell lysate, small-molecule microarray, fluorescence 635/667 (AID 1065)
MEASUREMENT PARAMETERS: higher = more signal, COS7 lysate expressing mutant human TOR1A
ENDPOINT LABEL: composite z-score

SMILES STRING: C=C(C(=O)CC[C@H](OC(=O)c1ccccc1-c1ccccc1C(=O)O)c1cccc(OCCO)c1)C(C)C
RECORDED NUMBER: -0.062

SMILES STRING: CCCN1C(=O)[C@]2(Cc3ccccc31)N=C(c1ccc(OCCCO)cc1)O[C@@H]2c1ccccc1
RECORDED NUMBER: 0.176

SMILES STRING: C=CC[C@@]1(C(=O)NCCCOC)N=C(c2ccc(OCCCO)cc2)O[C@@H]1c1ccccc1
RECORDED NUMBER: 1.09

SMILES STRING: C=CCOC(=O)[C@@H]1[C@H]2C(=O)O[C@H](c3ccccc3)[C@H](c3ccccc3)N2[C@H](c2ccc(OCCOC(=O)[C@@H]3C[C@@H]4C(=O)N[C@@H](CCCC[N+](C)(C)C)C(=O)N4[C@@H]3c3ccc(O)cc3)cc2)[C@@]12C(=O)Nc1ccc(I)cc12
RECORDED NUMBER: 0.956

----------
z-score values for the compounds below.
SYSTEM NAME: NADPH oxidase 4 (Homo sapiens) (UniProt Q9NPH5)
Sequence (Q9NPH5 whole entry, looked up): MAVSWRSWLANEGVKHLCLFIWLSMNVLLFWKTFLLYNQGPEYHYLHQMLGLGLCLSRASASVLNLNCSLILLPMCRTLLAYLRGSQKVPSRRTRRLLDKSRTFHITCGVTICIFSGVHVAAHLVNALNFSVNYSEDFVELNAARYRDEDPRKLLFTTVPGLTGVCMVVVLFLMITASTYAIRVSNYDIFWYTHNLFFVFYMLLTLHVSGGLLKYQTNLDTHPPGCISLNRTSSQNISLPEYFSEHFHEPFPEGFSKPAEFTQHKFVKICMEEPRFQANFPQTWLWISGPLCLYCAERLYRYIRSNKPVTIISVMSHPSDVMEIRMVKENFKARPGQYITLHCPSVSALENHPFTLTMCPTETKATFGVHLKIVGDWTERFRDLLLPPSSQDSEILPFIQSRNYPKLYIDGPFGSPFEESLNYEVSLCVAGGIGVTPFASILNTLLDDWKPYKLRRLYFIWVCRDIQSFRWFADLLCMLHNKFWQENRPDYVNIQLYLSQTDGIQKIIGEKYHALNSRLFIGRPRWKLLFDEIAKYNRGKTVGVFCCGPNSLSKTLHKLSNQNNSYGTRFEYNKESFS
EXPERIMENTAL DETAILS: compounds shifting NOX4 Amplex Red fluorescence – cell-based, HEK293-NOX4, tetracycline-induced, NOX inhibitor project, primary screen (AID 1160)
MEASUREMENT PARAMETERS: HEK293-NOX4, Amplex Red H2O2 fluorescence, 45 min; higher = more signal, called active from +8 up or from −8 down
Active and inactive are the calls of the source.

COMPOUND: CCOC(=O)C1=C[C@@H](c2ccccc2)N(S(=O)(=O)c2ccc(C)cc2)[C@H]1c1ccc(OC)cc1
z-score: 1.02 (inactive)
//
COMPOUND: COCCOC(=O)N1C(=O)[C@@]2(c3cc(C#CC4=CCCCC4)ccc31)[C@H](c1ccccc1OCCO)N1[C@H](c3ccccc3)[C@H](c3ccccc3)OC(=O)[C@H]1[C@@H]2C(=O)NC[C@H](O)c1ccccc1
z-score: 0.529 (inactive)
//
COMPOUND: CCCCCCCCCC(O)C1C=CC2C(=O)N(c3ccccc3)C(=O)C2N1Nc1cc(OC)c(OC)c(OC)c1 (centres undefined)
z-score: -4.13 (inactive)
//
COMPOUND: CCOc1cc(C(O)C2C=CC3C(=O)NC(=O)C3N2Nc2ccc(Cl)cc2Cl)ccc1O (centres undefined)
z-score: -1.88 (inactive)

----------
Reported composite z-score by item:
SYSTEM NAME: Calmodulin-1 (Homo sapiens) (UniProt P0DP23)
EXPERIMENTAL DETAILS: small molecules binding Ca-loaded calmodulin-1 – biochemical, small-molecule microarray, Cy5-labelled CALM1, plus calcium, artefact control for SMM control-protein annotation, profiling panel (AID 1112);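 further: score merges spot fluorescence with signal to noise from triplicate slides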
MEASUREMENT PARAMETERS: Cy5-CALM1 binding fluorescence, higher = more signal

COMPOUND: COc1ccc([Si](C)(C)[C@@H]2[C@@H](CC(=O)N3Cc4ccccc4C[C@H]3CO)O[C@]3(C(=O)N(Cc4ccc(N5C(=O)c6cccc7cccc5c67)cc4)c4ccccc43)[C@H]2C)cc1
composite z-score: -0.512
//
COMPOUND: CCOC(=O)C[C@H]1[C@H](OC(=O)Cc2ccc3c(c2)OCO3)[C@@H](NC(=O)c2ccc3ccccc3n2)c2cc(OCCCO)ccc2N1C(=O)c1ccc2ccccc2n1
composite z-score: -0.0205
//
COMPOUND: C=CCN1C(=O)[C@]2(CCS(=O)(=O)c3ccccc3)N=C(c3ccc(OCCCO)cc3)O[C@@H]2c2ccccc21
composite z-score: -0.493
//
COMPOUND: COCCOC(=O)N1C(=O)[C@@]2(c3cc(C#CC4=CCCCC4)ccc31)[C@H](C(=O)Nc1nc3ccccc3s1)[C@H]1C(=O)O[C@H](c3ccccc3)[C@H](c3ccccc3)N1[C@@H]2c1ccc(O)cc1
composite z-score: 0.641
//
COMPOUND: COc1cccc(C)c1NC(=O)O[C@H]1[C@H](OC(=O)Nc2ccc3c(c2)OCO3)[C@@H](OC(=O)Nc2ccc3c(c2)OCO3)[C@@H](OC)O[C@@H]1CO
composite z-score: -1.04
//
COMPOUND: CC1=C2[C@@H](CCc3ccccc3)OB(O)C[C@@H]2[C@@H]2C(=O)N(C)C(=O)[C@@H]2C1
composite z-score: -0.338
//
COMPOUND: COCC(=C=CC[C@H](O)c1ccccc1OCCO)C[C@H](O)c1ccccn1
composite z-score: -0.411
//
COMPOUND: O=C1CS(=O)(=O)C(c2cccc([N+](=O)[O-])c2)N1c1ccccc1 (stereo not drawn)
composite z-score: -0.177
//
COMPOUND: Cc1cc(C)c(C(O)C2C=CC3C(=O)N(c4ccccc4)C(=O)C3N2Nc2ccccc2F)c(C)c1 (stereo not drawn)
composite z-score: -0.0086
//
COMPOUND: CN(C)C(=O)[C@]1(Cc2ccccc2CN=[N+]=[N-])N=C(c2ccc(OCCCO)cc2)O[C@@H]1c1ccccc1
composite z-score: 0.596
//
COMPOUND: COc1ccc(CCNC(=O)[C@@]2(Cc3ccccc3I)c3ccccc3C(=O)N(C3CCCCC3)[C@H]2c2ccc(CO)cc2)cc1
composite z-score: 0.609
//
COMPOUND: C=CC[C@@H](OC(=O)Nc1ccc(OC)cc1)c1ccc(O)c(F)c1
composite z-score: -0.427
//
COMPOUND: C=C(/C(=C/C[C@H](OC(=O)c1ccncc1)c1ccc(CO)o1)c1cnc2ccccc2c1)C(C)C
composite z-score: -0.0351

----------
EXPERIMENTAL DETAILS: probe aLefty2 binding to arrayed compounds – biochemical, biotinylated probe, 635/667 nm fluorescence, primary screen (AID 1094);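 further: score merges spot fluorescence near 667 nm with spot signal-to-noise ratio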
MEASUREMENT PARAMETERS: small-molecule microarray, higher = more signal
ENDPOINT LABEL: composite z-score

COMPOUND: CCOC(=O)C1=C[C@@H](C(C)(C)C)N(S(=O)(=O)c2ccc(C)cc2)[C@H]1c1cccc2ccccc12
ENDPOINT LABEL: composite z-score
RECORDED NUMBER: -0.034

COMPOUND: C=CCC(OC(C)=O)[C@@H]1[C@@H](N(Cc2cccc3ccccc23)C(=O)Cc2ccc(F)cc2)c2cc(OCCCO)ccc2N1C(=O)c1ccc2ccccc2c1 (stereo partly specified)
ENDPOINT LABEL: composite z-score
RECORDED NUMBER: 0.0261

COMPOUND: COC(=O)C(CC#Cc1ccc2c(c1)[C@]1(C(=O)N2)[C@H](c2ccc(O)cc2)N2[C@H](c3ccccc3)[C@H](c3ccccc3)OC(=O)[C@H]2[C@@H]1C(=O)NC[C@H](O)c1ccccc1)C(=O)OC
ENDPOINT LABEL: composite z-score
RECORDED NUMBER: 0.0634

COMPOUND: CCCCC=C[C@@H](NC(=O)OCc1ccccc1Cl)c1ccccc1
ENDPOINT LABEL: composite z-score
RECORDED NUMBER: 1.09

COMPOUND: CCOC(=O)C=Cc1cccc(C)c1O
ENDPOINT LABEL: composite z-score
RECORDED NUMBER: -0.166

COMPOUND: NCCCCCCNC(=O)[C@@H]1C[C@@H]2C(=O)N[C@@H](CCCCN)C(=O)N2[C@@H]1c1ccc(O)cc1
ENDPOINT LABEL: composite z-score
RECORDED NUMBER: 0.362

----------
Collected z-score values appear next to each entry.
EXPERIMENTAL DETAILS: blockers of DNA damage checkpoint Chk1 activation – imaging, HeLa, hydroxyurea, phospho-Chk1 nuclear intensity, primary screen (AID 1187); further: test concentration not given here
MEASUREMENT PARAMETERS: hydroxyurea-induced phospho-Chk1 immunofluorescence imaging, higher = more signal

COMPOUND: Cc1ccc(C(C)CC(O)C2C=CC3C(=O)N(c4ccccc4)C(=O)C3N2Nc2ccccc2)o1 (stereo unspecified)
z-score: -0.508

COMPOUND: C=C(C(=O)CC[C@H](OC(=O)c1ccccc1-c1ccccc1C(=O)O)c1cccc(OCCO)c1)C(C)C
z-score: -0.51

COMPOUND: COC(=O)C1=CC(CCCO)=CC(c2cccs2)N(C)C=C1C(=O)OC (stereo unspecified)
z-score: 0.219

COMPOUND: C=CCOC(=O)[C@@]1(Cc2ccccc2)C[C@H]2CO[C@H](c3ccc(OC)cc3)N2C1=O
z-score: -0.386

COMPOUND: C=CC[C@@H](OC(=O)Nc1ccc(SC)cc1)c1ccc(O)c(F)c1
z-score: 0.539

COMPOUND: COCCOC(=O)N1C(=O)[C@@]2(c3cc(C#CC4=CCCCC4)ccc31)[C@H](c1ccccc1OCCO)N1[C@H](c3ccccc3)[C@H](c3ccccc3)OC(=O)[C@H]1[C@@H]2C(=O)NC[C@H](O)c1ccccc1
z-score: -0.175
